# Test system: 786-0 renal
# experimentalProtocol: NCI tumour cell line growth inhibition, 48 h
Below is a list of entries, each paired with its recorded TGI value.

INSERT INTO results (molecule, measuredattribute, valuereported) VALUES
  ('CC(=O)O[C@]12CCCCCC1C1(O)C(O)CCCC[C@H]12 (stereo not given in full)', 'TGI', '> 100 µM'),
  ('Cc1cc(S(=O)(=O)Nc2nc3cc(-c4ccc(Cl)cc4)sc3c(=O)n2N)c(S)cc1Cl', 'TGI', '> 100 µM'),
  ('Oc1cccc(-c2nc3cc(F)ccc3s2)c1', 'TGI', '39 µM'),
  ('COc1cccc(C#Cc2ccccc2C#CCCCCO)c1', 'TGI', '28 µM');

Q: Please report the recorded TGI for Cc1ccc2c(c1)C(=O)C1(C2)Cc2cccc(C)c2C1=O (stereo not given) .
Ans: > 100 µM

Q: Recorded TGI for Cn1c(COC(=O)Nc2ccccc2)c(COC(=O)Nc2ccccc2)c2ccc3cc(Cl)c(Cl)cc3c21 , please?
Ans: 12.6 µM

Q: Report TGI for Cc1ccc(S(=O)(=O)NC(=O)N[C@@H](Cc2cnc[nH]2)C(=O)O)cc1 please.
Ans: > 100 µM

Q: What value of TGI has been recorded for this entry: NC(CCC(=O)NC(CSCC1C(=O)Nc2ccccc21)C(=O)NCC(=O)O)C(=O)O (stereo not given)
Ans: 8.55 µM

Values were extracted from PubChem BioAssay (NCI).
